# measured.on: FGF2 (Homo sapiens, UniProt P09038 P09038:135-288)
# Sequence (P09038 135-288, one chain of several): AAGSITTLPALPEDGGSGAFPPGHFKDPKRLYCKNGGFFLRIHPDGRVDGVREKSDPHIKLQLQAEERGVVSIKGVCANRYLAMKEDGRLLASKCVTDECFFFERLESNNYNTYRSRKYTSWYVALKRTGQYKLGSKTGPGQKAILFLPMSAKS
# experiment.summary: inhibition; SPR inhibition of FGF2-FGFR1alpha(IIIc); each 0.1 uM
# experimental.context: tags: Peprotech
I'd appreciate it if you could supply activity values for the items below.
The reply should be a number in %, with the unit left off.

Query :: Please report the recorded activity for GGGAUACUAGGGCAUUAAUGUUACCAGUGUAGUCCC (ssRNA, 2'-F at U8,U16,U21,U28,G29,U30; 2'-OH at G12,G27; all others 2'-OMe) [aptamer ID 3(27)] .
Result :: 99

Query :: What about this binder? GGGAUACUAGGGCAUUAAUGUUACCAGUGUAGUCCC (ssRNA, 2'-F at U8,U16,U21,U28,U30; 2'-OH at G12,G27,G29; all others 2'-OMe; 5' PEG 80K (GL4-800TS)-C6; 3' idT) [aptamer ID 3(36)]
Result :: 98

Query :: What about this binder? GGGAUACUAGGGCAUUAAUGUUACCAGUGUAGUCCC (ssRNA, 2'-F at U8,U16,U21,U28,U30; 2'-OH at G12,G27,G29; all others 2'-OMe; 5' PEG 10K 4-branched (PTE-100CS)-C6; 3' idT) [aptamer ID 3(39)]
Result :: 97

Query :: What about this binder? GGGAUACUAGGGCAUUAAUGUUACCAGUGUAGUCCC (ssRNA, 2'-F at U8,G12,U16,U21,G27,U28,G29,U30; all others 2'-OMe; 3' idT) [aptamer ID 3(34)]
Result :: 91

Query :: What about this binder? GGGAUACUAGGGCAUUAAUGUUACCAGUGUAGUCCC (ssRNA, 2'-F at U8,U16,U21,U28,U30; 2'-OH at G12,G27,G29; all others 2'-OMe; PS between G11 and G12) [aptamer ID 3(28)]
Result :: 91

These data points were gathered from patent US20170157165.
